Biological target: human β2 adrenergic receptor (Homo sapiens)
Test: Whole-cell cAMP Flashplate assay with lung epithelial cell line BEAS-2B endogenously expressing human β2 adrenergic receptor (Assay Test Procedure E)
Type: cell-based
Details: BEAS-2B cells
Protocol: For the determination of agonist potencies and efficacies (intrinsic activities) in a cell line expressing endogenous levels of the β2 adrenergic receptor, a human lung epithelial cell line (BEAS-2B) was used (ATCC CRL-9609, American Type Culture Collection, Manassas, Va.) (January B, et al., British Journal of Pharmacology, 1998, 123, 4, 701-11). […] On the day of the assay, cells were rinsed with PBS, lifted by scraping with 5 mM EDTA in PBS, and counted. […]
pEC50: −log10 of the molar value.
Listing of recorded pEC50 by entry.

Answered examples (2):
O=C(Nc1ccccc1-c1cccs1)OC1CCN(CCCCCCCCCNC[C@H](O)c2ccc(O)c3[nH]c(=O)ccc23)CC1 [Example 1]; > 7.70
O=C(Nc1ccccc1-c1ccsc1)OC1CCN(CCCCCCCCCNC[C@H](O)c2ccc(O)c3[nH]c(=O)ccc23)CC1 [Example 2]; > 7.70

Attention now shifts to the item below.
## Input For the compound shown here, O=C(Nc1c(F)cc(F)cc1-c1cccnc1)OC1CCN(CCCCCCCCCNC[C@H](O)c2ccc(O)c3[nH]c(=O)ccc23)CC1 [Example 3] , give the reported pEC50.
## Output > 7.70

* * *

Target: hM3 muscarinic receptor (Homo sapiens, UniProt P20309)
Sequence (P20309 whole entry): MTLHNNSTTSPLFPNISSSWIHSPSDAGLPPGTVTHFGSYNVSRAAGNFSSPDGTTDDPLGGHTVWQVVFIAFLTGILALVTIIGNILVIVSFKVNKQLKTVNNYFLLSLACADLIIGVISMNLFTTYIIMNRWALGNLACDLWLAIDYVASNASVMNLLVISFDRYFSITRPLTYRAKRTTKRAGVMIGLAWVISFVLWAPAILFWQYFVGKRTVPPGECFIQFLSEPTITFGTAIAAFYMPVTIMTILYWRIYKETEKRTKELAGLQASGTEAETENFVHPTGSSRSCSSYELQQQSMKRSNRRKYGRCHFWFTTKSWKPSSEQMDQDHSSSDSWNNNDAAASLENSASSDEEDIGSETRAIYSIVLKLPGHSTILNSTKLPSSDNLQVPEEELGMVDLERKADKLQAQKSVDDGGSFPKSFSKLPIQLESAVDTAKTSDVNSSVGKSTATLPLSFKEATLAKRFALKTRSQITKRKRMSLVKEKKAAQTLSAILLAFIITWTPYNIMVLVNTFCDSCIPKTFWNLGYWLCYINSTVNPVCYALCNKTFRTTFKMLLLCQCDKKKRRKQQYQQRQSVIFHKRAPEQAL
measurement kind: Ki

## Input Write down the reported Ki of `O=C(Nc1c(F)cc(F)cc1-c1cccnc1)OC1CCN(CCCCCCCCCNC[C@H](O)c2ccc(O)c3[nH]c(=O)ccc23)CC1` , test system: hM3 muscarinic receptor (Homo sapiens, UniProt P20309).
## Output < 150 nM

* * *

Target: human β2 adrenergic receptor (Homo sapiens, UniProt P07550)
Sequence (P07550 whole entry): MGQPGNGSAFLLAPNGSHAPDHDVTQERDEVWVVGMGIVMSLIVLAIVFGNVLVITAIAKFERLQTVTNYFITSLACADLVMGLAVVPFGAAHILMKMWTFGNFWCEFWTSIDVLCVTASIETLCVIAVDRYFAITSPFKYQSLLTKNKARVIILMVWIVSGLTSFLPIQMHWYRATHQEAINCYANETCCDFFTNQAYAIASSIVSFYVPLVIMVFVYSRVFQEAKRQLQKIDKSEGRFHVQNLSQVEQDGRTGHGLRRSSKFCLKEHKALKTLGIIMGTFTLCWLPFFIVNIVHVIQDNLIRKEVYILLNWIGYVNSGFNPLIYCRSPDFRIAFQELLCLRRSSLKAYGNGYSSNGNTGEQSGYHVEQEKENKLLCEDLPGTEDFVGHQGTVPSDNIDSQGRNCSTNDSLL
Test: Whole-cell cAMP Flashplate assay in CHO cell lines heterologously expressing human β2 adrenergic receptor (Assay Test Procedure C)
Type: cell-based
Parameters: expressed in transfected cells; host or cells: CHO-K1 cells
Conditions: CHO-K1 cells
Listing of recorded EC50 by entry.

Answered examples (2):
O=C(Nc1c(F)cc(F)cc1-c1cccnc1)OC1CCN(CCCCCCCCCNC[C@H](O)c2ccc(O)c3[nH]c(=O)ccc23)CC1; < 10 nM
O=C(Nc1ccccc1-c1cccs1)OC1CCN(CCCCCCCCCNC[C@H](O)c2ccc(O)c3[nH]c(=O)ccc23)CC1; < 10 nM

Attention now shifts to the item below.
## Input For the compound shown here, `O=C(Nc1ccccc1-c1ccsc1)OC1CCN(CCCCCCCCCNC[C@H](O)c2ccc(O)c3[nH]c(=O)ccc23)CC1` , give the reported EC50.
## Output < 10 nM
